System: UACC-62 melanoma
ASSAY_DETAILS: NCI-60 one-dose screen, 48 h
CONDITION_NOTES: 10 µM unless noted
The panel holds about 83,000 compounds, 20% with a hit somewhere; the sample as a whole holds those more often. Calls of active or inactive are those of the source. How the source made its calls: active means growth percent below 10; inactive means the rest.
Select the matching outcome among TRUE (active), FALSE (inactive)

Problem: Per the assay record, what outcome was assigned to "CN(C)c1ccc(C2(Cl)c3ccccc3N(C)c3ccccc32)cc1" ?
Result: FALSE

Problem: // param item: CNC(=O)OC1C(O[C@H]2C[C@H]3[C@@H]4CC=C5C[C@@H](O)CC[C@]5(C)[C@H]4CC[C@]3(C)[C@H]2[C@H](C)C(=O)CCC(C)C)OCC(O)C1OC1OCC(O)C(O)C1OC(=O)c1ccc(OC)cc1 (stereo not given in full) ; yields the recorded call
Result: TRUE

We now examine a further compound.
Problem: Which outcome did this test record for the compound COC(=O)C(Br)(C(=O)OC)C(Br)C(Br)C(Br)c1ccccc1 (stereo not given) ?
Result: FALSE

// data source = PubChem BioAssay (NCI)
